- test system: GPIIb/IIIa (Homo sapiens, UniProt P05106+P08514)
- Construct: Purification of GPIIb/IIIa from HEL cells; endogenous in cells; host or cells: HEL cells (HEL 92.1.7, ATCC TIB180); endogenous complex solubilized with Triton X-100 and purified in house
- Sequence (P08514 32-887 limits assumed): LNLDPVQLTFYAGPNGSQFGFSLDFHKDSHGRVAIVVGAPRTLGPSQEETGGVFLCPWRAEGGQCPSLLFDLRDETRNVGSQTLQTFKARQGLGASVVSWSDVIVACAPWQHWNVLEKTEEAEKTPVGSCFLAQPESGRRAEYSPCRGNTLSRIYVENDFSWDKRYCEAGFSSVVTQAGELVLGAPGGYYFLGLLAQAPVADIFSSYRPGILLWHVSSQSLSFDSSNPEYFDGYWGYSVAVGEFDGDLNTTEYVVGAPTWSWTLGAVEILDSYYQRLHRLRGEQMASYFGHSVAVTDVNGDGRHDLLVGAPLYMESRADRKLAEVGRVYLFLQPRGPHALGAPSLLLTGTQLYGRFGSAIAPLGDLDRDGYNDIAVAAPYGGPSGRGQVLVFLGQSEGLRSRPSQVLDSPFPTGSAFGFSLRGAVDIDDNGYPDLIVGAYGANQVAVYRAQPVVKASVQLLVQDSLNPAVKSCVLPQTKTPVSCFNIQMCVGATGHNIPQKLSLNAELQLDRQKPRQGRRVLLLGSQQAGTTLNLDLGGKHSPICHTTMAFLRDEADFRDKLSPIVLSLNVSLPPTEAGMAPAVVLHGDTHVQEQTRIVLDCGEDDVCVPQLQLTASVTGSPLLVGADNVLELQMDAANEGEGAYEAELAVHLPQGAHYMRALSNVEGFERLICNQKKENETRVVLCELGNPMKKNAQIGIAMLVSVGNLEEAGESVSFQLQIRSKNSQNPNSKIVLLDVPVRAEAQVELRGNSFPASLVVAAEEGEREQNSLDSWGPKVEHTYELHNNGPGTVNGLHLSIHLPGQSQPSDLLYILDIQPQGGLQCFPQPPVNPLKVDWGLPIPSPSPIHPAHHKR
- Sequence (P08514 891-1039 limits assumed): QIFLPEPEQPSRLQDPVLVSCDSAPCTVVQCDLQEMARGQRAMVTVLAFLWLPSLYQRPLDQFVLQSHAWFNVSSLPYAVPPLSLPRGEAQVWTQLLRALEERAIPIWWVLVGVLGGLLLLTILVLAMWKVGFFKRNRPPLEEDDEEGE
- Sequence (P05106 27-788): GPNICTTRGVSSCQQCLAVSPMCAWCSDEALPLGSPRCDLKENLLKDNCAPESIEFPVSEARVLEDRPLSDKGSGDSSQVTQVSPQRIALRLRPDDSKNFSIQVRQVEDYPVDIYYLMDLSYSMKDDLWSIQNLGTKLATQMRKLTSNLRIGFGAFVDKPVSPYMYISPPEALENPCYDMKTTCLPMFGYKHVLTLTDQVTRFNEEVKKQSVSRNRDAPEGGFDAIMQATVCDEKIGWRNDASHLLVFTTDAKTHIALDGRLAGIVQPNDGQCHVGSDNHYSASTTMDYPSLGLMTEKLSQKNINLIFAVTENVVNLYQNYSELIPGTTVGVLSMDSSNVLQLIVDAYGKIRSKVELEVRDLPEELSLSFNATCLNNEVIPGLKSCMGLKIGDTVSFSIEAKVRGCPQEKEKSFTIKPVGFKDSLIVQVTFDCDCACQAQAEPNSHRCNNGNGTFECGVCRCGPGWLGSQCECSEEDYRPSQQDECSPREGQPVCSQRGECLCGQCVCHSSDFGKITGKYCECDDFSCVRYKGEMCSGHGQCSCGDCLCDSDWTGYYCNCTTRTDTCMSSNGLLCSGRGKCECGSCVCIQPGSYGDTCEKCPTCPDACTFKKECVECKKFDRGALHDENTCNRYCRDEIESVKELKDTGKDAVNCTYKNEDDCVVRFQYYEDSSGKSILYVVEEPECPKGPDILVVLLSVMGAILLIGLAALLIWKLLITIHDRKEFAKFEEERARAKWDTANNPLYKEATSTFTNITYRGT
- assay overview: Inhibitory activity against binding of GPIIb/IIIa and fibrinogen
- settings: Table 2; 10^-6 M; read-out: GPIIb/IIIa Fibrinogen Binding Inhibitory Activity
reported endpoint: inhibition at 1 µM (%)

A. O=C(O)c1cn(C2CC2)c2c(F)c(N3CCn4cc(CN5CCOCC5)nc4C3)c(F)cc2c1=O [Compound 30]
B. O=C(O)c1cn(Cc2nccs2)c2cc(N3CCC(C4CCNCC4)CC3)ccc2c1=O [Compound 58]
C. CCNCC1CCN(c2c(F)cc3c(=O)c(C(=O)O)cn(C4CC4)c3c2F)C1 (centres unmarked) [Compound 23]
Order the 3 listed items from lowest to highest according to inhibition at 1 µM. Response field: labels, in requested order. A, C, B

A. NC1CN(c2c(F)cc3c(=O)c(C(=O)O)cn(C4CC4)c3c2F)Cc2ccccc21 (centres unmarked) [Compound 35]
B. NCCN1CCN(c2c(F)cc3c(=O)c(C(=O)O)cn(Cc4nccs4)c3c2F)CC1 [Compound 70]
Parameter check: reported inhibition at 1 µM is higher for which label, A or B ? Choose, then provide that item's label. B
(B: 95.9%, A: 21.5%)

###

- test system: GPIIb/IIIa (Homo sapiens, UniProt P05106+P08514)
- Construct: Purification of GPIIb/IIIa from HEL cells; endogenous in cells; host or cells: HEL cells (HEL 92.1.7, ATCC TIB180); endogenous complex solubilized with Triton X-100 and purified in house
- assay overview: Inhibitory activity against binding of GPIIb/IIIa and fibrinogen
- settings: Table 2; 10^-5 M; read-out: GPIIb/IIIa Fibrinogen Binding Inhibitory Activity
reported endpoint: inhibition at 10 µM (%)

INSERT INTO measurements (smiles_str, numeric_result) VALUES
  ('O=C(O)c1cn(Cc2nccs2)c2c(F)c(N3CCN(c4cc(N5CCCC5)nc(N5CCCC5)n4)CC3)c(F)cc2c1=O', 58.6),
  ('O=C(O)c1cn(CCc2ccccc2)c2c(F)c(N3CCNCC3)c(F)cc2c1=O', 88.2),
  ('O=C(O)c1cn(C2CC2)c2c(F)c(N3CCNCC3)c(F)cc2c1=O', 72.7),
  ('NCCN1CCN(c2c(F)cc3c(=O)c(C(=O)O)cn(Cc4nccs4)c3c2F)CC1', 100),
  ('O=C(O)c1cn(CCO)c2c(F)c(N3CCn4ccnc4C3)c(F)cc2c1=O', 91.3),
  ('O=C(O)c1cn(Cc2ccc(F)cc2)c2c(F)c(N3CCC(C4CCNCC4)CC3)c(F)cc2c1=O', 98.1),
  ('O=C(O)c1cn(Cc2ccccc2)c2c(F)c(N3CCNCC3)c(F)cc2c1=O', 100),
  ('CCNCc1cn2c(n1)CN(c1c(F)cc3c(=O)c(C(=O)O)cn(C4CC4)c3c1F)CC2', 78.4);

###

- test system: GPIIb/IIIa (Homo sapiens, UniProt P05106+P08514)
- Construct: Purification of GPIIb/IIIa from HEL cells; endogenous in cells; host or cells: HEL cells (HEL 92.1.7, ATCC TIB180); endogenous complex solubilized with Triton X-100 and purified in house
- assay overview: Inhibitory activity against binding of GPIIb/IIIa and fibrinogen
- settings: Table 2; 10^-5 M; read-out: GPIIb/IIIa Fibrinogen Binding Inhibitory Activity
reported endpoint: inhibition at 10 µM (%)

I. O=C(O)c1cn(Cc2nccs2)c2c(F)c(N3CCn4ccnc4C3)c(F)cc2c1=O [Compound 51]
II. CC(=O)N1CC(n2cc(C(=O)O)c(=O)c3cc(F)c(N4CCN(C)CC4)c(F)c32)C1 [Compound 15]
Which value of inhibition at 10 µM is smaller, the one for I or the one for II ? Choose, then provide that item's label. II
(II: 60.5%, I: 97.5%)

I. CN(C)CCOC1CCN(c2c(F)cc3c(=O)c(C(=O)O)cn(C4CC4)c3c2F)C1 (centres unmarked) [Compound 25]
II. NCC1CN(c2c(F)cc3c(=O)c(C(=O)O)cn(C4CC4)c3c2F)Cc2ccccc21 (centres unmarked) [Compound 37]
Which value of inhibition at 10 µM is smaller, the one for I or the one for II ? Choose, then provide that item's label. II

a. CN(C)CCN(C)c1nc2c(cc1F)c(=O)c(C(=O)O)cn2C1CC1 [Compound 21]
b. CN(C)CCOC1CCN(c2c(F)cc3c(=O)c(C(=O)O)cn(Cc4nccs4)c3c2F)C1 (centres unmarked) [Compound 62]
Which value of inhibition at 10 µM is smaller, the one for a or the one for b ? Choose, then provide that item's label. a
(a: 69.9%, b: 100%)

1. COc1ccccc1Cn1cc(C(=O)O)c(=O)c2cc(F)c(N3CCNCC3)c(F)c21 [Compound 76]
2. CCN1CCCC1CNc1c(F)cc2c(=O)c(C(=O)O)cn(C3CC3)c2c1F (centres unmarked) [Compound 24]
Parameter check: reported inhibition at 10 µM is higher for which label, 1 or 2 ? Choose, then provide that item's label. 1
(1: 100%, 2: 50%)

###

- test system: GPIIb/IIIa (Homo sapiens, UniProt P05106+P08514)
- Construct: Purification of GPIIb/IIIa from HEL cells; endogenous in cells; host or cells: HEL cells (HEL 92.1.7, ATCC TIB180); endogenous complex solubilized with Triton X-100 and purified in house
- assay overview: Inhibitory activity against binding of GPIIb/IIIa and fibrinogen
- settings: Table 2; 10^-6 M; read-out: GPIIb/IIIa Fibrinogen Binding Inhibitory Activity
reported endpoint: inhibition at 1 µM (%)

INSERT INTO results (molecule, reported_endpoint, numeric_result) VALUES
  ('CN1CCN(C(=O)OC2CCN(c3c(F)cc4c(=O)c(C(=O)O)cn(C5CC5)c4c3F)C2)CC1 (stereo not shown) [Compound 26]', 'inhibition at 1 µM', 71.4);

a. O=C(O)c1cn(Cc2nccs2)c2c(F)c(N3CCN(CCO)CC3)c(F)cc2c1=O [Compound 71]
b. O=C(O)c1cn(CCF)c2c(F)c(N3CCN4CCCC4C3)c(F)cc2c1=O (stereo not shown) [Compound 8]
c. O=C(O)c1cn(C2CC2)c2c(F)c(N3CCn4ccnc4C3)c(F)c(F)c2c1=O [Compound 40]
Hey, can you sort those molecules up there by inhibition at 1 µM, smallest first? Response field: labels, in requested order. c, b, a
(c: 34.7%, b: 53.1%, a: 100%)

A. CN1CCN(c2c(F)cc3c(=O)c(C(=O)O)cn(C4CN(C)C4)c3c2F)CC1 [Compound 16]
B. O=C(O)c1cn(Cc2ccc(F)cc2)c2c(F)c(N3CCC(C4CCNCC4)CC3)c(F)cc2c1=O [Compound 78]
Parameter check: reported inhibition at 1 µM is higher for which label, A or B ? Choose, then provide that item's label. B

P. O=C(O)c1cn(Cc2nccs2)c2c(F)c(N3CCC(C4CCNCC4)CC3)c(F)cc2c1=O [Compound 68]
Q. CN1CCN(C(=O)CCCNc2c(F)cc3c(=O)c(C(=O)O)cn(C4CC4)c3c2F)CC1 [Compound 42]
Which value of inhibition at 1 µM is smaller, the one for P or the one for Q ? Choose, then provide that item's label. Q
(Q: 38.6%, P: 100%)

P. O=C(O)c1cn(C2CCc3ccccc32)c2c(F)c(N3CCNCC3)c(F)cc2c1=O (stereo not shown) [Compound 46]
Q. O=C(O)c1cn(Cc2ccccc2)c2c(F)c(N3CCNCC3)c(F)cc2c1=O [Compound 55]
Parameter check: reported inhibition at 1 µM is higher for which label, P or Q ? Choose, then provide that item's label. Q

###

- test system: GPIIb/IIIa (Homo sapiens, UniProt P05106+P08514)
- Construct: Purification of GPIIb/IIIa from HEL cells; endogenous in cells; host or cells: HEL cells (HEL 92.1.7, ATCC TIB180); endogenous complex solubilized with Triton X-100 and purified in house
- assay overview: Inhibitory activity against binding of GPIIb/IIIa and fibrinogen
- settings: Table 2; 10^-6 M; read-out: GPIIb/IIIa Fibrinogen Binding Inhibitory Activity
- Source text: Test Example 1: Inhibitory activity against binding of GPIIb/IIIa and fibrinogen (1) Cultivation of human erythroleukemia-derived cell line (hereinafter referred to as HEL cells) HEL cells (HEl92.1.7; ATCC No. TIB180) were purchased from ATCC (Rockville, Md., U.S.A.). […]
Counter-ions that a name gives are not always drawn.
reported endpoint: inhibition at 1 µM (%)

INSERT INTO results (molecule, numeric_result) VALUES
  ('O=C(O)c1cn(Cc2nccs2)c2c(F)c(N3CCNCC3)c(F)cc2c1=O [Compound 59, hydrochloride]', 100),
  ('O=C(O)c1cn(Cc2nccs2)c2c(F)c(N3CCCNCC3)c(F)cc2c1=O', 97.1),
  ('COc1ccc(Cn2cc(C(=O)O)c(=O)c3ccc(N4CCC(C5CCNCC5)CC4)cc32)cc1', 100),
  ('O=C(O)c1cn(Cc2cscn2)c2c(F)c(N3CCN(c4ccncc4)CC3)c(F)cc2c1=O', 100),
  ('CCNCc1cn2c(n1)CN(c1c(F)cc3c(=O)c(C(=O)O)cn(C4CC4)c3c1F)CC2', 42.6);

a. O=C(O)c1cn(C2CC2)c2c(F)c(N3CCN4CCC[C@@H]4C3)c(F)cc2c1=O
b. CN1CCN(C(=O)OC2CCN(c3c(F)cc4c(=O)c(C(=O)O)cn(Cc5nccs5)c4c3F)C2)CC1 (centres unmarked)
c. NCc1nc2c(s1)CCN(c1c(F)cc3c(=O)c(C(=O)O)cn(C4CC4)c3c1F)C2
Hey, can you sort those molecules up there by inhibition at 1 µM, smallest first? Response field: labels, in requested order. a, c, b
(a: 39.3%, c: 57.7%, b: 100%)
